Below, each entry is listed alongside its reported pIC50.
Molecular target: Angiotensin-converting enzyme (Homo sapiens)
Sequence (P12821 whole entry): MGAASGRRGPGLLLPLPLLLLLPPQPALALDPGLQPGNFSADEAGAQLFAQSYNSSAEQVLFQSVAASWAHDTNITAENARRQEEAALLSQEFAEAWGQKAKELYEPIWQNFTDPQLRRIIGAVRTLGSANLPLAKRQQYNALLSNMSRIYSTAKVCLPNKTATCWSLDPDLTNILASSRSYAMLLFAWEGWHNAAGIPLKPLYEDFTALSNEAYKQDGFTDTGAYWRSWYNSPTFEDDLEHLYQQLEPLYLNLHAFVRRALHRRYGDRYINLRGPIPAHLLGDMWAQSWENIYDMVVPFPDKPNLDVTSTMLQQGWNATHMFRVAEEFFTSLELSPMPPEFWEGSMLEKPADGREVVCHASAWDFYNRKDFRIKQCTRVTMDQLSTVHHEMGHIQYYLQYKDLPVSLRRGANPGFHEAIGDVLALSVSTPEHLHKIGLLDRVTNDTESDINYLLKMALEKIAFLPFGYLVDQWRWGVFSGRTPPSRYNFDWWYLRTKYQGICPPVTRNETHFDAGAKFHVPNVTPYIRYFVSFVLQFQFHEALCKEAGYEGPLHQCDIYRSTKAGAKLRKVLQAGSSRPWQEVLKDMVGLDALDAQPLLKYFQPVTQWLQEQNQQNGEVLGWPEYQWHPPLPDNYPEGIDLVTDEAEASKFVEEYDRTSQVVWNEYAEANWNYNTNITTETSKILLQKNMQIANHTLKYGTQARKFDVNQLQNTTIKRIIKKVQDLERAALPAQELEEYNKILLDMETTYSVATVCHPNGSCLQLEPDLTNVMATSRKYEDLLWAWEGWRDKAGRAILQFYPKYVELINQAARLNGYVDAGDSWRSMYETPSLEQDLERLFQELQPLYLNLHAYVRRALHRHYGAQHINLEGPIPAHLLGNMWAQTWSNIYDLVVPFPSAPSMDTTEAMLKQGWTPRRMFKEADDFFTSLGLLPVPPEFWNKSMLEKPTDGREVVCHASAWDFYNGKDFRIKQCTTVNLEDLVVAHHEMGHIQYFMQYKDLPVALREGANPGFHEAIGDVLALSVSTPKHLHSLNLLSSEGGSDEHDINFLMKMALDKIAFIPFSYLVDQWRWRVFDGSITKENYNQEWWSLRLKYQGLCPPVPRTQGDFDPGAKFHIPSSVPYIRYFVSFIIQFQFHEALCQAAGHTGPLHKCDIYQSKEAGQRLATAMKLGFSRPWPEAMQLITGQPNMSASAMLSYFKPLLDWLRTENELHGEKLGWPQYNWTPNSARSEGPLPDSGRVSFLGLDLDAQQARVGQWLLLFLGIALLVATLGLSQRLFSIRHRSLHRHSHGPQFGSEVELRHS
pIC50: −log10 of the molar value.
ASSAY_METRIC: pIC50

{"columns": ["STRUCTURE_AS_SMILES", "QUANTITATIVE_RESULT"],
 "data": [
  ["CC(C)CN(CP(=O)(O)O)C(=O)N[C@@H](Cc1ccc2ccccc2c1)C(=O)O", 7.54],
  ["O=C1c2ccccc2C(=O)c2cc(CN(C[C@H](O)C(=O)O)C(=O)N[C@@H](Cc3ccc4ccccc4c3)C(=O)O)ccc21", 7.40],
  ["CC(C)(C)CN(C[C@H](O)C(=O)O)C(=O)N[C@@H](Cc1ccc2ccccc2c1)C(=O)O", 6.72],
  ["O=C(O)[C@H](Cc1ccc2ccccc2c1)NC(=O)N(CCN1C(=O)c2cccc3cccc(c23)C1=O)C[C@H](O)C(=O)O", 5.70],
  ["O=C1c2ccccc2-c2ccc(CN(C[C@H](O)C(=O)O)C(=O)N[C@@H](Cc3ccc4ccccc4c3)C(=O)O)cc21", 7.41],
  ["CC(C)CN(C[C@H](O)C(=O)O)C(=O)N[C@@H](Cc1ccc(O)cc1)C(=O)O", 7.22],
  ["CC(C)CN(C[C@H](O)C(=O)O)C(=O)N[C@@H](Cc1ccc2ccccc2c1)C(=O)O", 7.28],
  ["CC(C)CN(C[C@H](O)C(=O)O)C(=O)N[C@@H](Cc1ccc(-c2ccccc2)cc1)C(=O)O", 7.46]
]}
